Assay: NCI Yeast Anticancer Drug Screen. Data for the mec2-1 strain (AID 157)
Details: S. cerevisiae mec2-1 strain, at 50.0 µM (retest, dose inferred, filed as 5.0)
Compounds without any hit were thinned out: in the full panel of roughly 79,000, 15% have a hit. Active and inactive are the calls of the source. No stated cut-off is given here; in the data, active means growth inhibition above about 70%; inactive means the rest.
Output constraint: value belongs to 1 (yes) = active, 0 (no) = inactive

1. C=C(CN(C)C)C(=O)c1ccc(Oc2ccccc2)cc1: 1 (yes)
2. CN1C(=O)C(C2C(=O)N(C)C(=O)N(C)C2=O)C(=O)N(C)C1=O: 0 (no)
3. CNC(=O)OCC1=CC(=O)C(OC)=C(OC)C1=O: 0 (no)
4. CC(C)CC(NC(=O)SCc1ccccc1)C(=O)O (stereo unspecified): 0 (no)

Problem: Record lookup: outcome of this test for C[Si](C)(C)CN1C(=O)c2ccccc2C1(O)c1ccccc1 (stereo unspecified) ?
Result: 0 (no)

Problem: Identify the outcome logged in this assay for the compound shown: O=S(=O)(NC(=S)Nc1ccccc1)c1ccc(Br)cc1
Result: 0 (no)

Problem: Would you mind telling me which call this test gave Cn1c2nc(-[n+]3ccc4ccccc4c3)nc-2c([O-])n(C)c1=O ?
Result: 1 (yes)

Problem: Kindly provide the recorded test outcome for the following compound: CCCCCCCCCCCCCCNCCC(=O)O
Result: 1 (yes)

###

Assay: NCI Yeast Anticancer Drug Screen. Data for the mlh1 rad18 strain (AID 175)
Settings: S. cerevisiae mlh1 rad18 strain growth inhibition; at 50.0 µM; active compounds read high
About 79,000 compounds went through this panel and 15% of them were active in at least one assay; those are over-represented in the sample as a whole.
Consider the following compounds; for each one, report its growth inhibition.
One number for each entry, in %.

Look over these answered cases.
1) COC(=O)c1c(/C(=N/Nc2ccc([N+](=O)[O-])cc2)[N+](=O)[O-])ssc1=N: 70.9
2) c1cc(SSc2ccncc2)ccn1: 82.1

For each of the items listed, what is its growth inhibition?
1. CCOC(=O)/C=C(\NC1CC(OC2C[C@](O)(C(C)=O)Cc3c(O)c4c(c(O)c32)C(=O)c2c(OC)cccc2C4=O)OC(C)C1O)C(=O)OCC (stereo not given in full)
2. O=C1C(Cl)=C(Nc2ccc(S(=O)(=O)O)cc2)C(=O)c2ccccc21
3. CCCC(=O)Oc1ccc(-c2ccccc2)cc1Br
4. CCC(C)SSc1ccccc1C(=O)Nc1ccc(Cl)cc1 (stereo not given)
5. O=C1O/C(=C\c2ccccc2)c2ccccc21
6. CCCCCCCCCCCCSC1=C(N)C(=O)c2ccccc2C1=O
7. O=C(Nc1cc(Cl)ccc1Oc1cc(Cl)c(Cl)cc1S(=O)(=O)O)Nc1cc(Cl)ccc1Oc1cc(Cl)c(Cl)cc1S(=O)(=O)O
8. NC(CSSCC(N)C(=O)Nc1ccc2ccccc2c1)C(=O)Nc1ccc2ccccc2c1 (stereo not given)

Result:
87.5
99.4
95.9
87.7
68.3
53
85.3
88

###

Assay: NCI Yeast Anticancer Drug Screen. Data for the bub3 strain (AID 167)
Conditions: S. cerevisiae bub3 mutant strain, at 50.0 µM, active compounds read high
Procedure: Growth inhibition of yeast strains with defined genetic alterations is measured as a screen for potential anti-cancer activity. Selected strains with alterations in DNA damage repair or cell cycle control were exposed to compounds and growth inhibition was measured relative to vehicle treated controls. The strain used in this assay is bub3
This is part of a sample that, as a whole, favours compounds with a hit. Of some 79,000 tested, about 15% had one in any assay.
// classify(record): look up growth inhibition in ranges low (below 60%), moderate (60% to below 90%), high (90% or more)

Below, 5 compounds whose answers are already recorded.
1) CCC(Sc1ccccc1[N+](=O)[O-])[N+](=O)[O-] (stereo not given): high
2) C1=Nc2ccccc2C=Nc2ccccc2C=Nc2ccccc2C=Nc2ccccc21.[Cl-].[Pt+2]: moderate
3) COc1cccc2c1C(=O)c1c(O)c3c(c(O)c1C2=O)C[C@@](O)(/C(C)=N/NC(=O)c1ccc(Cl)c(Cl)c1)C[C@@H]3OC1CC(N)C(O)C(C)O1 (stereo not given in full): high
4) O=C(Nc1nc2ccc([N+](=O)[O-])cc2s1)C(=O)C(C1OC(=O)c2ccccc21)[N+](=O)[O-] (stereo not given): moderate
5) CC(=O)C(C(=O)CCSCCO)C(SCCO)c1ccc(Cl)c(Cl)c1 (stereo not given): moderate

Now for another entry.
Problem: Textbook exercise: identify the category of the compound given here, CC(=O)OC1=CC2=CCC3C(CCC4(C)C(C(C)=O)CCC34)C2(C)CC1 (stereo not given) , according to its measured value.
Result: low
